// provenance: paper PMC9482650

# TARGET UNDER TEST: T1, LRRC7, Q96NW7
# T1 sequence (Q96NW7 1440-1537, limits assumed, looked up): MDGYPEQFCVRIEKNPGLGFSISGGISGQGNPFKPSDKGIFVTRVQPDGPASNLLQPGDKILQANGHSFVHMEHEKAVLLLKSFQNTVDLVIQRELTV
# TEST DESCRIPTION: holdup assay
# Parameters: key: below the threshold = too weak to quantify, mostly under pKd 3.1 to 4
# CONDITIONS: plain residues with an end cap or a label only (N-terminal biotin on a linker: ado-ado)
PARAMETER MEASURED: pKd

Worked examples, 6 binders total:
Indicate its recorded pKd; the binder in question is KKMPSIESDV [GRIN2A, Q12879] 3.91

Query pKd for RKPKPSSSCC [RAB9A, P51151] below the threshold

Name the recorded pKd of the binder listed here: QSLNRMEYIV [JAG1, P78504] below the threshold

Read off the recorded pKd for YNNCLEILRV [DCAF7, P61962] below the threshold

Consider the binder TSSMRGMDAV [RSRC2, Q7L4I2] . State its measured pKd. below the threshold

Kindly indicate its recorded pKd. Item: LSEFKAMDSI [CTNNA1, P35221] below the threshold

Next:
Fill in pKd for record GQEEQVTTRL [TRPC5, Q9UL62] below the threshold

Please look at this binder and report its pKd: YYKRPVQEWV [MMP24, Q9Y5R2] 4.03

Return pKd (reported value) for this binder: VYPNAKVELV [PDLIM4_iso2, P50479;P50479-1] below the threshold

Return the recorded pKd value; entry: SGSLKLMTTV [DACT1, Q9NYF0] below the threshold

Give pKd for PEYLGLDVPV [ERBB2, P04626] below the threshold

Please report the measured pKd for HSGYRLNDYV [CLDN14, O95500] below the threshold

Return pKd for the following binder: IKAIVDLTGL [TRAF2, Q12933] below the threshold

Read off the recorded pKd for RHGSCVETSL [TMEM151B, Q8IW70] 4.08

Quote pKd reported for VRNLPESEEL [MYOZ3, Q8TDC0] please. below the threshold

Quote pKd reported for FNSYSLTGYV [CLDN2, P57739] please. below the threshold
